The measured values listed here are drawn from PubChem BioAssay AID504765.

Biological target: glucose-6-phosphate dehydrogenase-6-phosphogluconolactonase (Plasmodium falciparum 3D7)
Test: concentration-dependent PfGluPho enzyme inhibition – biochemical, fluorescence intensity, dose response (AID 504765)
Details: Recombinant PfG6PD enzyme, fluorescence intensity (NADPH)
Active and inactive are the calls of the source. The rule behind the calls is not given here.
Allowed answers: 1 for active, -1 for inactive

Challenge: Write down the call the test reported for this molecule. Item: COc1ccc(N2C(=O)/C(=C/c3cccs3)NC2=S)cc1
Response given: -1

Challenge: Write down the call the test reported for this molecule. Item: COc1cc(O)c(C(=O)O)c(-c2cc(O)c(O)cc2C)c1
Response given: 1

Challenge: Write down the call the test reported for this molecule. Item: CC(C)c1nnc(NC(=O)c2cccc(-n3cnnn3)c2)s1
Response given: 1

Challenge: Write down the call the test reported for this molecule. Item: Cc1ccc(NC(=O)c2cc(N3C(=O)C=CC3=O)ccc2Cl)cc1C
Response given: 1

Challenge: Write down the call the test reported for this molecule. Item: O=C(Nc1nnc(S(=O)(=O)N2CCCCC2)s1)c1ccc(Cl)cc1
Response given: 1

Challenge: Write down the call the test reported for this molecule. Item: Cn1c(=O)c2[nH]c(-c3ccccc3)c(O)c2n(C)c1=O
Response given: 1

Challenge: Write down the call the test reported for this molecule. Item: CC1=CC(C)(C)Nc2ccc(OC(=O)CN3C(=O)CCC3=O)cc21
Response given: 1

Challenge: Write down the call the test reported for this molecule. Item: CCOc1ccccc1NC(=O)CCCc1nc2ccccc2c(=O)[nH]1
Response given: 1

Challenge: Write down the call the test reported for this molecule. Item: Cc1[nH]c(=S)c(C#N)c(C)c1CCC#N
Response given: -1

Challenge: Write down the call the test reported for this molecule. Item: COc1cc(OC)c(C2CC(=O)N3CN(c4ccccc4)CSC3=C2C#N)cc1OC (stereo not given)
Response given: 1

Challenge: Write down the call the test reported for this molecule. Item: COc1ccc(/C=C/c2nc3ccccc3n2Cc2ccc(OC)c(OC)c2)cc1
Response given: -1

Challenge: Write down the call the test reported for this molecule. Item: O=[N+]([O-])c1c(NCCCO)cc(Sc2nc3ccccc3s2)c2nonc12
Response given: 1

Challenge: Write down the call the test reported for this molecule. Item: Cc1ccc(C(=O)/C=C/C(=O)c2ccc(C)cc2)cc1
Response given: 1

Challenge: Write down the call the test reported for this molecule. Item: CCN1CCN(C(=S)c2ccc(Cl)c(Cl)c2)CC1
Response given: -1

Challenge: Write down the call the test reported for this molecule. Item: COc1cc(-c2cc(OC)c(O)c(OC)c2)cc(OC)c1O
Response given: 1
